- Tested On: Human full-length CaMKIIδ (Homo sapiens)
- Construct: Human full-length CaMKIIδ (Cat #02-111) was obtained from Carna Biosciences; GST; purchased Carna Biosciences 02-111
- Test: Human CaMKII enzyme inhibition assay (radiometric kinase assay)
- Assay type: biochemical
- Settings: 3 μM compound; 500 nM ATP; 0.5 nM CaMKIIδ; read-out: CaMKIIδ inhibitory activity (%) at 3 μM
Counter-ions that a name gives are not always drawn.
Parameter Measured: inhibition at 3 µM (%)

>>> numeric_value("COc1cc(N2CCC(N3CCOCC3)CC2)ccc1Nc1ncc(-c2ccc(Cl)c(O[C@@H](C)Cn3cnnn3)c2)cn1")
99
>>> numeric_value("COc1cc(C(=O)NC2CCOCC2)ccc1Nc1ncc(-c2ccc(C#N)c(O[C@@H](C)Cn3cnnn3)c2)cn1")
98
>>> numeric_value("C[C@@H](Cn1cnnn1)Oc1cc(-c2cnc(Nc3cn(C)nc3C(F)(F)F)nc2)ccc1C#N")
99
>>> numeric_value("COc1cc(N2CCC(N3CCOCC3)CC2)ccc1Nc1ncc(-c2ccc(C#N)c(O[C@@H](C)Cn3ncnn3)c2)cn1")
98
>>> numeric_value("C[C@@H](Cn1cncn1)Oc1cc(-c2cnc(Nc3cnn(CC(C)(C)C#N)c3)nc2)ccc1C#N")
98
>>> numeric_value("C[C@@H](Cn1cnnn1)Oc1cc(-c2cnc(Nc3cnn(C)c3)nc2)ccc1C#N")
99
>>> numeric_value("COCCN1CCC(c2ccc(Nc3ncc(-c4ccc(C#N)c(O[C@@H](C)Cn5cnnn5)c4)cn3)c(OC)c2)CC1")
98
>>> numeric_value("COc1cc(N2CCC(N3C[C@H]4CC[C@@H](C3)O4)CC2)ccc1Nc1ncc(-c2ccc(Cl)c(O[C@@H](C)Cn3cnnn3)c2)cn1")
100
>>> numeric_value("COc1cc(N2CCN(C3COC3)CC2)ccc1Nc1ncc(-c2ccc(C#N)c(O[C@@H](C)Cn3cnnn3)c2)cn1")
99
>>> numeric_value("Cn1cc(Nc2ncc(-c3ccc(C#N)c(O[C@@H](CO)Cn4cccn4)c3)cn2)cn1")
82
>>> numeric_value("Cc1nn(C)cc1Nc1ncc(-c2ccc(C#N)c(O[C@@H](C)Cn3cncn3)c2)cn1")
96
>>> numeric_value("COc1cc(CNC2CC2)ccc1Nc1ncc(-c2ccc(C#N)c(O[C@@H](C)Cn3cncn3)c2)cn1 [Example 33, dihydrochloride]")
98
>>> numeric_value("COc1ccccc1Nc1ncc(-c2ccc(C#N)c(O[C@@H](C)Cn3cnnn3)c2)cn1")
99
>>> numeric_value("COc1cc(C(=O)N2CCC(OC)CC2)ccc1Nc1ncc(-c2ccc(C#N)c(O[C@@H](C)Cn3cnnn3)c2)cn1")
98
>>> numeric_value("COc1cc(N2CCC(N3CCOCC3)CC2)ccc1Nc1ncc(-c2ccc(C#N)c(O[C@@H](C)Cn3cncn3)c2)cn1")
99
>>> numeric_value("COc1cc(N2CCC(N3CCCCC3)CC2)ccc1Nc1ncc(-c2ccc(C#N)c(O[C@@H](C)Cn3cnnn3)c2)cn1")
99
>>> numeric_value("COc1cc(C2CCN(C3COC3)CC2)ccc1Nc1ncc(-c2ccc(C#N)c(O[C@@H](C)Cn3cnnn3)c2)cn1")
98
>>> numeric_value("COc1ccccc1Nc1ncc(-c2ccc(C#N)c(O[C@@H](C)Cn3cncn3)c2)cn1")
96
>>> numeric_value("COc1cc(C2CCN(C3COC3)CC2)ccc1Nc1ncc(-c2ccc(Cl)c(O[C@@H](C)Cn3cnnn3)c2)cn1")
99
>>> numeric_value("COc1cc(N2CCN(C3COC3)CC2)c(F)cc1Nc1ncc(-c2ccc(Cl)c(O[C@@H](C)Cn3cnnn3)c2)cn1")
98
>>> numeric_value("C[C@@H](Cn1cncn1)Oc1cc(-c2cnc(Nc3cn(C)nc3C(F)(F)F)nc2)ccc1C#N")
97
>>> numeric_value("C[C@@H](Cn1cncn1)Oc1cc(-c2cnc(Nc3cnn(C4CC4)c3)nc2)ccc1C#N")
98
>>> numeric_value("CC(C)n1cc(Nc2ncc(-c3ccc(C#N)c(O[C@@H](C)Cn4ncnn4)c3)cn2)cn1")
94
>>> numeric_value("C[C@@H](Cc1ccn[nH]1)Oc1cc(-c2cnc(Nc3cnn(C)c3)nc2)ccc1C#N")
96

Each recorded value in this set is attributed to patent US10543212B2.
